# Measured On: rVGAT (RUNC-47, rat unc-47 homologue) (Rattus norvegicus, UniProt O35458)
# Construct: expressed in transfected cells
# Sequence (O35458 whole entry): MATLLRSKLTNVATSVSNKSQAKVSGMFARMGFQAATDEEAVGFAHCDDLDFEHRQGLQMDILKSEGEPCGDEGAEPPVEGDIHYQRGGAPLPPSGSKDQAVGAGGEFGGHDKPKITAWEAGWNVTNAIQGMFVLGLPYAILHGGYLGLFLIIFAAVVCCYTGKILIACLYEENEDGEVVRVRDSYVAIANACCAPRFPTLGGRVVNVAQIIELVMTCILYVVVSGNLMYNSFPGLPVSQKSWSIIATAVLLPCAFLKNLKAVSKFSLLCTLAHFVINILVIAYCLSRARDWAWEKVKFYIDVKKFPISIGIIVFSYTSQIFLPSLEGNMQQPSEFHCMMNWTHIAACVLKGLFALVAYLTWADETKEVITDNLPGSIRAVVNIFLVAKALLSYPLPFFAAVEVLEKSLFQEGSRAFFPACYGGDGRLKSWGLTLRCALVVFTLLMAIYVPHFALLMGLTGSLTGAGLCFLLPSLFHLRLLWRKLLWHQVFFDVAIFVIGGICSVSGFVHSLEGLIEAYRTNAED
# Experimental Details: 3H-GABA transport assay in vesicles from PC12 cells stably expressing rVGAT (RUNC-47)
# Assay type: biochemical
Attribute Measured: IC50 (mM)

NCCCC(=O)O = 4.75
C=CC(N)CCC(=O)O (stereo not shown) = 7.5
CCCC(=O)O = 43.5
NCC(=O)O = 27.5
